System: Enterobacter
Test: Compound was tested for its antibacterial activity against Enterobacter 250002 strain.
Type: functional
This listing pairs compounds with measured MIC.
ENDPOINT: MIC (µg/mL)

[
  {
    "STRUCTURE_SMILES_STRING": "C[C@@H](NC(=O)[C@@H](N)Cc1ccccc1)P(=O)(O)O",
    "ENDPOINT": "MIC",
    "SCALE_UNIT": "µg/mL",
    "RESULT_NUMBER": 2
  },
  {
    "STRUCTURE_SMILES_STRING": "C[C@@H](NC(=O)[C@@H](N)CF)P(=O)(O)O",
    "ENDPOINT": "MIC",
    "SCALE_UNIT": "µg/mL",
    "RESULT_NUMBER": 32
  },
  {
    "STRUCTURE_SMILES_STRING": "CSCC[C@H](N)C(=O)N[C@H](C)P(=O)(O)O",
    "ENDPOINT": "MIC",
    "SCALE_UNIT": "µg/mL",
    "RESULT_NUMBER": 1
  }
]

FYI, the data here is from ChEMBL document CHEMBL1123207.
